Tested on: HepG2-TP53BP1-CLTA
assay-summary: phenotypically active (imaging signature differs from DMSO and reproducible) at any of 0.3-9 uM (binary (1 = active, 0 = inactive)); higher = active
recorded-conditions: treatment time: 24 h
Lab note: assign the record to one of 1 (yes) for active, 0 (no) for inactive

Previously resolved entries follow.
- molecule: "CCN1C[C@@]2(COC)C3[C@@H](OC)[C@H]4[C@H]1C3([C@@H]1C[C@@]3(O)[C@H](OC(=O)c5ccccc5)[C@@H]1[C@]4(OC(C)=O)[C@@H](O)[C@@H]3OC)[C@H](OC)C[C@H]2O [Aconitine]"
  label: "0 (no)"
- molecule: "O=C(O)CC[N+](=O)[O-] [3-Nitropropionic acid]"
  label: "0 (no)"
- molecule: "CC(C)N(CCC(C(N)=O)(c1ccccc1)c1ccccn1)C(C)C (configuration not stated) [disopyramide]"
  label: "0 (no)"
- molecule: "C[C@]12CC[C@H](O)C[C@H]1CC[C@@H]1[C@@H]2C[C@@H](O)[C@]2(C)[C@@H](C3=CC(=O)OC3)CC[C@]12O [Digoxigenin]"
  label: "1 (yes)"
- molecule: "C[C@]12CC[C@H](O)C[C@H]1CC[C@@H]1[C@@H]2CC[C@]2(C)[C@@H](C3=CC(=O)OC3)CC[C@]12O [Digitoxigenin]"
  label: "1 (yes)"
- molecule: "O=c1ccc2ccc3occc3c2o1 [Angelicin]"
  label: "0 (no)"

We now examine a further molecule.
Could you check what this test reported for C=C1[C@H]2C[C@@]3([C@@H]1O)[C@@H](C[C@@H]2O)[C@]12[C@@H]4C[C@H]3[C@H]1N(CC)C[C@]4(C)CC[C@@H]2O [Napelline] ?
0 (no)

Reference source: the supplement of paper PMC7411054
